# protocol-summary: Half life in Sprague-Dawley rat at 1 mg/kg, iv
# Format: ADME, organism-based
# condition-context: in vivo
endpoint-name: half-life (h)
Form entry: value (h) — number only.

Noted for O=C(NCCCCNC(=O)c1cccnc1O)c1cc(-c2ccccc2)on1 : its half-life reads 7.6

---

# protocol-summary: Intrinsic clearance in human microsomes
# Assay type: ADME, Microsome
endpoint-name: clearance (mL/min/kg)
Form entry: value (mL/min/kg) — number only.

Noted for O=C(NCCCCNC(=O)c1cccnc1O)c1cc(-c2ccccc2)on1 : its clearance reads 0

---

# protocol-summary: Intrinsic clearance in rat microsomes
# Type: ADME, Microsome
endpoint-name: clearance (mL/min/kg)
Form entry: value (mL/min/kg) — number only.

Noted for O=C(NCCCCNC(=O)c1cccnc1O)c1cc(-c2ccccc2)on1 : its clearance reads 33

---

# Tested on: Rattus norvegicus
# protocol-summary: Clearance in Sprague-Dawley rat at 1 mg/kg, iv
# Format: ADME, organism-based
# condition-context: in vivo
endpoint-name: clearance (mL/min/kg)
Form entry: value (mL/min/kg) — number only.

Query O=C(NCCCCNC(=O)c1cccnc1O)c1cc(-c2ccccc2)on1 on Rattus norvegicus; clearance returned: 18

---

# test-target: Cytochrome P450 1A2 (Homo sapiens)
# Sequence (P05177 whole entry): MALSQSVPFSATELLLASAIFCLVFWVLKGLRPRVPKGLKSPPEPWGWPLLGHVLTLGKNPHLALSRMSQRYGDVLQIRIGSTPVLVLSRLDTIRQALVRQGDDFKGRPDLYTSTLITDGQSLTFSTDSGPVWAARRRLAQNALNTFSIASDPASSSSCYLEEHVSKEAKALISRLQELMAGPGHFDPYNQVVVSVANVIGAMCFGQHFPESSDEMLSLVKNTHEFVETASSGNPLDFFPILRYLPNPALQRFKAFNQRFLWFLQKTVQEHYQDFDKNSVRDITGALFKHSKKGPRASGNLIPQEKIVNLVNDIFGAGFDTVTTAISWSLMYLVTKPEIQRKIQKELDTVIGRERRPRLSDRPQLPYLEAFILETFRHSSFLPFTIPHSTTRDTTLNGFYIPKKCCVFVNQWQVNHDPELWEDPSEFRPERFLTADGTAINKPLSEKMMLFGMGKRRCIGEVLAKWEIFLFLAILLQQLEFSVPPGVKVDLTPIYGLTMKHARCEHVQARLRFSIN
pIC50: −log10 of the molar value.
endpoint-name: pIC50

Noted for O=C(NCCCCNC(=O)c1cccnc1O)c1cc(-c2ccccc2)on1 : its pIC50 reads < 4.52
